Please provide measured viability increase for the entries that follow.
experiment: viability gain of MRP-1-high H69AR cells under doxorubicin, pilot screen, MRP-1 activator project, CellTiter-Glo, duplicate (AID 807); details: H69AR viability with doxorubicin, CellTiter-Glo luminescence; at 10 µM; active compounds read high;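 further: compound pretreatment 18-22 h then 72 h combined with doxorubicin; 0% = doxorubicin alone and 100% = vehicle without doxorubicin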
Report as a plain number; the unit % is understood.

Consider the compound shown here: Cc1nc2ccccc2c2oc(C(=O)NC3CC3)cc12 What is its recorded viability increase?
-2.61

Consider the compound shown here: CCOc1ccc(-c2nc(CSc3nncs3)cs2)cc1OC What is its recorded viability increase?
-3.61

Consider the compound shown here: COc1ccc(-n2c(Cc3cccn3C)nnc2SCC(=O)Nc2ccc(C(C)=O)cc2)cc1 What is its recorded viability increase?
-3.67

Consider the compound shown here: CCOC(=O)Nc1ccccc1C(=O)N1CCOCC1 What is its recorded viability increase?
-0.42

Consider the compound shown here: O=C(NCc1cn2ccsc2n1)c1cccs1 What is its recorded viability increase?
-2.88

Consider the compound shown here: O=C(NCCC1=CCCCC1)c1ccc2c(=O)n3c(nc2c1)CCCCC3 What is its recorded viability increase?
-1.07

Consider the compound shown here: COC(=O)c1ccccc1NS(=O)(=O)c1cn(C)c(=O)n(C)c1=O What is its recorded viability increase?
-1.59

Consider the compound shown here: O=C(N[C@@H](Cc1ccccc1)C(=O)O)c1cccnc1 What is its recorded viability increase?
0.01

Consider the compound shown here: COc1ccccc1N1CCN(C(=O)CCCC2=NS(=O)(=O)c3ccccc3N2)CC1 What is its recorded viability increase?
-4.95

Consider the compound shown here: O=C1CNC(=O)/C1=C\N1CCN(C(c2ccccc2)c2ccccc2)CC1 What is its recorded viability increase?
-2.16

Consider the compound shown here: c1ccc(Cn2c(CSc3nnnn3-c3ccccc3)nc3ccccc32)cc1 What is its recorded viability increase?
-2.93

Consider the compound shown here: CC1=C(C(=O)OC2CCCCCCC2)C(c2cccc(O)c2)NC(=O)N1 (stereo not drawn) What is its recorded viability increase?
4.53

Consider the compound shown here: Nc1nc(NC(=O)c2cccc(S(=O)(=O)N3CCCCCC3)c2)nc(-c2ccccc2)n1 What is its recorded viability increase?
-4.04

Consider the compound shown here: CC(=O)/C(C(=N)N1CCN(Cc2ccccc2)CC1)=C(\C)O What is its recorded viability increase?
-0.02

Consider the compound shown here: Cc1cc(Nc2cccc(Cl)c2C)n2ncnc2n1 What is its recorded viability increase?
-1.11

Consider the compound shown here: O=C1C2CCCN2C(c2ccc(F)c(F)c2)N1c1cccc(Cl)c1 (stereo not drawn) What is its recorded viability increase?
-0.86

Consider the compound shown here: O=C1C=C(N(CCO)CCO)C2(CCCCC2)O1 What is its recorded viability increase?
-1.83

Consider the compound shown here: CCCc1nc(N)nc2c1C(=O)CC(C)(C)C2 What is its recorded viability increase?
-1.08

Consider the compound shown here: CCOC(=O)CCc1c(C)n(CC)c2ncnn2c1=O What is its recorded viability increase?
-0.77

Consider the compound shown here: COc1ccc(C2C(C(=O)N3CCOCC3)CCC(=O)N2c2cc(OC)c(OC)c(OC)c2)cc1 (stereo not drawn) What is its recorded viability increase?
-0.09

Consider the compound shown here: COc1ccc(OC)c2c1CC(C)(C)NC2=O What is its recorded viability increase?
-0.54

Consider the compound shown here: Cc1c(C(=O)NCc2ccc3c(c2)OCO3)sc2nc(-c3ccccc3)cn12 What is its recorded viability increase?
-0.35

Consider the compound shown here: CCOC(=O)C(CCOc1cccc(CC)c1)C(=O)OCC What is its recorded viability increase?
-2.61

Consider the compound shown here: CCC(=O)Nc1nc2c(OC)ccc(C)c2s1 What is its recorded viability increase?
-5.96

Consider the compound shown here: C=C(C)Cn1c(C2CC(=O)N(c3ccccc3F)C2)nc2ccccc21 (stereo not drawn) What is its recorded viability increase?
-2.5

Consider the compound shown here: CCOC(=O)c1[nH]c(C)c(C(=O)N(CC)CC)c1C What is its recorded viability increase?
0.21

Consider the compound shown here: Cc1nc(C)c(C(=O)Nc2ccccc2)s1 What is its recorded viability increase?
-0.17

Consider the compound shown here: Cc1onc(-c2ccccc2Cl)c1C(=O)NCCN1Cc2ccccc2C1=O What is its recorded viability increase?
-4.11

Consider the compound shown here: COc1ccc(OC)c(C2CC(=O)N3CN(c4ccccc4F)CSC3=C2C#N)c1 (stereo not drawn) What is its recorded viability increase?
-1.77

Consider the compound shown here: COC(=O)C(C)Sc1nnc(Cc2cc(=O)[nH]c(=O)[nH]2)n1-c1ccc(Cl)cc1 (stereo not drawn) What is its recorded viability increase?
-1.15

Consider the compound shown here: COC(=O)c1cc(OC)c(OC)cc1-n1cnc2cc(OC)c(OC)cc2c1=O What is its recorded viability increase?
-0.58

Consider the compound shown here: CN1CCN(S(=O)(=O)c2ccc3ccccc3c2)CC1 What is its recorded viability increase?
-2.23

Consider the compound shown here: NC(=O)c1ccsc1NC(=O)C1CCCCC1 What is its recorded viability increase?
-0.9

Consider the compound shown here: Cc1c(C)n(CC(O)CN2CCCCCC2)c2ccccc12 (stereo not drawn) What is its recorded viability increase?
-4.25

Consider the compound shown here: CCOC(=O)c1cc2c(n(-c3ccc(C)cc3)c1=O)CCCC2=O What is its recorded viability increase?
-3.28

Consider the compound shown here: CCCCCn1c(CCCNC(=O)CC)nc2ccccc21 What is its recorded viability increase?
-2.94

Consider the compound shown here: Cc1cc(C(=O)N2CCN(S(C)(=O)=O)CC2)sc1-c1ccccc1 What is its recorded viability increase?
-2.61

Consider the compound shown here: Cc1csc2nc(CNC(=O)C3CCCCC3)cn12 What is its recorded viability increase?
-3.04

Consider the compound shown here: CCN(CC)S(=O)(=O)c1ccc(S(=O)(=O)N2CCN(CCC#N)CC2)cc1 What is its recorded viability increase?
-1.58

Consider the compound shown here: O=C(C1CC1)N1CCCN(C(=O)C2CC2)CC1 What is its recorded viability increase?
-1.86

Consider the compound shown here: O=C(CSc1n[nH]c(-c2ccccc2)n1)c1ccccc1 What is its recorded viability increase?
-0.56

Consider the compound shown here: COc1ccc(NC(=O)Cc2nc3ccccc3[nH]2)cc1 What is its recorded viability increase?
-1.06

Consider the compound shown here: Cc1ccc(CN2CCNC(=O)C2CC(=O)O)o1 (stereo not drawn) What is its recorded viability increase?
-0.83

Consider the compound shown here: Cc1ccc(-c2nc(NC(=O)CSc3nnc(C)s3)ns2)cc1 What is its recorded viability increase?
-0.8

Consider the compound shown here: CCCn1c(-c2ccc(OC)cc2)nc2ccccc21 What is its recorded viability increase?
-0.51

Consider the compound shown here: O=C(c1cc(-c2ccccc2)nc2ccccc12)N1CCOCC1 What is its recorded viability increase?
-3.82

Consider the compound shown here: O=C(NC1=NCCS1)c1csc2ccccc12 What is its recorded viability increase?
-3.86

Consider the compound shown here: Cn1c(CSc2nc3ccccc3s2)n[nH]c1=S What is its recorded viability increase?
-3.16

* * *

test: OD615 S. cerevisiae growth inhibition, permissive medium, pilot counter-assay, permissive growth control for S. cerevisiae lifespan shortening project (AID 705); conditions: OD615, 24 h, at 10 µM, active compounds read high
The source made the active and inactive calls.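 How the source made its calls: active means growth inhibition above 25% in both replicates, a cutoff set 3 SD above the mean; inconclusive means above 25% in only one replicate; inactive means the rest.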
Measured metric: growth inhibition

Consider the compound shown here: CC(=O)N1CC2(C)CN(C(C)=O)CC(C)(C1)C2=O What is its recorded growth inhibition?
-5.64% (inactive)

Consider the compound shown here: Cc1cc(C(=O)NCC2CCCO2)n(-c2ccccc2)n1 (stereo unspecified) What is its recorded growth inhibition?
-0.68% (inactive)

Consider the compound shown here: O=C(NC1CCCCC1)N1CCCCCC1 What is its recorded growth inhibition?
1.12% (inactive)

Consider the compound shown here: CCCC(=O)N1CCN(C2=NS(=O)(=O)c3ccccc32)CC1 What is its recorded growth inhibition?
-0.28% (inactive)

Consider the compound shown here: CCn1cc(C(=O)OCC(=O)Nc2c(C)n(C)n(-c3ccccc3)c2=O)c(=O)c2ccc(C)nc21 What is its recorded growth inhibition?
-11.8% (inactive)

Consider the compound shown here: CCOC(=O)N1CCN(CC(=O)c2ccc3c(c2)CCN3C(C)=O)CC1 What is its recorded growth inhibition?
0.355% (inactive)

Consider the compound shown here: CCOCCCNC(=O)C(NC(=O)CC1NC(=O)NC1=O)c1ccc(Cl)cc1 (stereo unspecified) What is its recorded growth inhibition?
-4.46% (inactive)

Consider the compound shown here: CCn1c(SCc2nc(-c3ccccc3)no2)nc2ccccc21 What is its recorded growth inhibition?
-12% (inactive)

Consider the compound shown here: COc1ccc(C2C3=C(Nc4ncnn42)c2ccccc2CCC3)cc1 (stereo unspecified) What is its recorded growth inhibition?
-12.5% (inactive)

Consider the compound shown here: O=C(Cn1ncc2c1-c1ccccc1OC2)N(Cc1ccco1)C1CCCCC1 What is its recorded growth inhibition?
0.715% (inactive)

Consider the compound shown here: CC1(C)Cc2c(C#N)c(NC3CCCCC3)nc(-c3ccco3)c2CO1 What is its recorded growth inhibition?
-15.4% (inactive)

Every entry's value here was drawn from PubChem BioAssay.
